From: the supplement of paper PMC3545927

# Tgt: furin, P09958
# Sequence (P09958 whole entry): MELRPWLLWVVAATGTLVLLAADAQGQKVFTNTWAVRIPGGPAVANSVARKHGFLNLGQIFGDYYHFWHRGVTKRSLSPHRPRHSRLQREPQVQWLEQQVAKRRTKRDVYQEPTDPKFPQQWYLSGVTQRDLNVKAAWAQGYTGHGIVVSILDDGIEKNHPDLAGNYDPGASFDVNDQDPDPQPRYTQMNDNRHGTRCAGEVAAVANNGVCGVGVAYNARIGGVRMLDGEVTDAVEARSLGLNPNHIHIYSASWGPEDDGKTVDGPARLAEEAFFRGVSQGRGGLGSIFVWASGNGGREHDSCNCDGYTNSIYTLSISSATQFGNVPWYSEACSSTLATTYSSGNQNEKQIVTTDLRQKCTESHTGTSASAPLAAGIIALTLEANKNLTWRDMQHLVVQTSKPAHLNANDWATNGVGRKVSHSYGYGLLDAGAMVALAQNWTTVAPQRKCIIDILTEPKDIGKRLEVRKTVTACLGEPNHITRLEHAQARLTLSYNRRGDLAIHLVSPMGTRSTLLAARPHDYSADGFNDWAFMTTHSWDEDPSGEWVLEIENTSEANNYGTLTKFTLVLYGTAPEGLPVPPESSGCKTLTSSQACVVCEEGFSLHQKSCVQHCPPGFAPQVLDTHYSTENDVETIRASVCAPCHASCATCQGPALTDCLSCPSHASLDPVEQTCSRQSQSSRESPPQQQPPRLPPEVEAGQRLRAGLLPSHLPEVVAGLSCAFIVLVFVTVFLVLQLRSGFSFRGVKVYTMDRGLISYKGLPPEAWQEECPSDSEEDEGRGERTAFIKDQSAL
# Assay explanation: furin cleavage Z-score vs untreated control; higher = more cleavage, active = 3.5 or more, inactive = 1 or less, 8 variable residues between constant flanks;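 note: purified furin at 1:10 enzyme:substrate in 50 mM HEPES pH 7.5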
# Measurement parameters: 30 min
Some of the results follow. The hit rate among all sequences tested is not known here.
Classes used: yes (1) (active), no (0) (inactive)

# Residues, Class name
measured = [
    ("CANCSREARGAGNASASA [FS-832]", "no (0)"),
    ("CAEAEVPCHRAGNASASA [HC2443]", "no (0)"),
    ("CAVVNRKARFAGNASASA [FS-208]", "yes (1)"),
    ("CAVVCTSMSYAGNASASA [HC96]", "no (0)"),
    ("CANCSIYPGHAGNASASA [HC313]", "no (0)"),
    ("CAIDRRIARFAGNASASA [FS-539]", "yes (1)"),
    ("CAVLARMMRPAGNASASA [FS-966]", "no (0)"),
    ("CAMTRYSAPPAGNASASA [HC1542]", "no (0)"),
    ("CAMEEDSQHLAGNASASA [HC12]", "no (0)"),
    ("CANCSRKRRTAGNASASA [FS-551]", "yes (1)"),
    ("CAVLHRRRRYAGNASASA [FS-891]", "yes (1)"),
    ("CARMIRRRRYAGNASASA [FS-1652]", "yes (1)"),
    ("CARKIRIKGIAGNASASA [FS-2558]", "no (0)"),
    ("CARKIRKKRLAGNASASA [FS-84]", "yes (1)"),
    ("CARLPRSAPPAGNASASA [FS-2572]", "yes (1)"),
    ("CARFWKSAPPAGNASASA [FS-2140]", "no (0)"),
    ("CAMEECSQHKAGNASASA [HC1774]", "no (0)"),
    ("CAPAPSGCPPAGNASASA [HC1346]", "no (0)"),
    ("CARLPRSVRSAGNASASA [FS-1263]", "yes (1)"),
    ("CAVVKCSMSYAGNASASA [HC2034]", "no (0)"),
    ("CAYGMWPLLLAGNASASA [HC556]", "no (0)"),
]
